- assay details: Clearance in mouse at 1 mg/kg, iv
- Type: ADME, organism-based
- condition details: in vivo
property label: clearance (mL/min/kg)

molecular_string=CC(C)(C)c1ccc(S(=O)(=O)Nc2ccc(Cl)c3c2C(=O)N(Cc2cccc[n+]2[O-])C3=O)cc1 property_label=clearance measured_number=2.57
molecular_string=Cc1cccc(N2C(=O)c3c(Cl)ccc(NS(=O)(=O)c4ccc(C(C)(C)C)cc4)c3C2=O)n1 property_label=clearance measured_number=2.34
molecular_string=CC(C)(C)c1ccc(S(=O)(=O)Nc2ccc(Cl)c3c2C(=O)N(Cc2ccc[n+]([O-])c2)C3=O)cc1 property_label=clearance measured_number=3.92
molecular_string=Cc1c(N2C(=O)c3c(Cl)ccc(NS(=O)(=O)c4ccc(C(C)(C)C)cc4)c3C2=O)ccc[n+]1[O-] property_label=clearance measured_number=4.69

// data source = ChEMBL document CHEMBL3797083
